Provenance of the data: the supplement of paper PMC10567573

B1: PRPH (parent)
chain: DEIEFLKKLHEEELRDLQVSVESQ

- Variants of: B1
- assay_explanation: protein stability index of a GFP-peptide fusion (GPS, HEK-293T) (PSI 1-6); higher = more stable;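 further: lentivirally expressed fusions sorted by FACS into six bins by GFP to DsRed ratio, PSI derived from sequencing read proportions per bin multiplied by bin number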
- experimental_parameters: c terminus: a fixed tail appended
measure_name: protein stability index

INSERT INTO measurements (mutation_string, measure_name, value_measured) VALUES
  ('L14A', 'protein stability index', 4.95),
  ('L14N', 'protein stability index', 5.08),
  ('H10T', 'protein stability index', 4.95),
  ('S20V', 'protein stability index', 4.88),
  ('S23T', 'protein stability index', 4.95),
  ('L9A', 'protein stability index', 5.02),
  ('F5I', 'protein stability index', 4.92),
  ('V21H', 'protein stability index', 5.09),
  ('K8D', 'protein stability index', 4.89),
  ('L9E', 'protein stability index', 5.05),
  ('S20H', 'protein stability index', 4.91),
  ('K7P', 'protein stability index', 5.04),
  ('V21T', 'protein stability index', 4.96),
  ('Q24N', 'protein stability index', 4.92),
  ('H10P', 'protein stability index', 5.1),
  ('L9V', 'protein stability index', 5.01),
  ('I3P', 'protein stability index', 4.94),
  ('Q18N', 'protein stability index', 5.11),
  ('S23N', 'protein stability index', 5.04);
